- Tested target: JAK2 (Homo sapiens (Human), UniProt O60674)
- Sequence (O60674 whole entry): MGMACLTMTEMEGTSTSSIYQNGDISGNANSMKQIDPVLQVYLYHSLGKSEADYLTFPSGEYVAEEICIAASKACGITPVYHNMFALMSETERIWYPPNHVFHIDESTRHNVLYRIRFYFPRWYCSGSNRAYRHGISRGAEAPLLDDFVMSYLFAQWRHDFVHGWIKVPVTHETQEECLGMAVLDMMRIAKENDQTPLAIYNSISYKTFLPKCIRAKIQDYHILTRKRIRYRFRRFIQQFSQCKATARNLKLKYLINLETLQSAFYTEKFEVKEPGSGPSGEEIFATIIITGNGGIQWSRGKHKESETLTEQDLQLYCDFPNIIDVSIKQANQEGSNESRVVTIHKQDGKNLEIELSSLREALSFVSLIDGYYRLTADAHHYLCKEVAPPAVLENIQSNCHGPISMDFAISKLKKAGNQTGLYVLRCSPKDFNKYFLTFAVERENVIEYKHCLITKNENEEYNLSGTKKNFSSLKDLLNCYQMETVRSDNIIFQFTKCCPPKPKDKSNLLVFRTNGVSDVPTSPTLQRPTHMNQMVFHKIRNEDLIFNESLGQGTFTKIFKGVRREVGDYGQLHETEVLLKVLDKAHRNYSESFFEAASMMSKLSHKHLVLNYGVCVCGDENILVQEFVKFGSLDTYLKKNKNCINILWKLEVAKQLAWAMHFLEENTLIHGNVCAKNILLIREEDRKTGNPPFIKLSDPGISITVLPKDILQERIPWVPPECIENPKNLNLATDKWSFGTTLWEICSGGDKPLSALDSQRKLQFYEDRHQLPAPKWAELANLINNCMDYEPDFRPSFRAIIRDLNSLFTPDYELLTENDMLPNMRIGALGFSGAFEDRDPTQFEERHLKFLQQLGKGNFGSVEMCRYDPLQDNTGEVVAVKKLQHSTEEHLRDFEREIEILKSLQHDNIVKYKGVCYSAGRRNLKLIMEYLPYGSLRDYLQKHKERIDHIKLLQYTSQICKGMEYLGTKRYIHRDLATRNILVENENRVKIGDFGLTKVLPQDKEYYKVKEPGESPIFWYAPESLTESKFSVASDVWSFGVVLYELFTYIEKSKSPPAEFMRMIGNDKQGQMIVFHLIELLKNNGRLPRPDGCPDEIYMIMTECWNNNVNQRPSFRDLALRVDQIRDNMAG
- Experimental protocol: JAK2 LANCE Ultra kinase assay
- Assay type: biochemical
- Condition: 12 uM ATP
Assay metric: IC50 (nM)
Express your answer in nM, writing the number without its unit.

In plain terms, COCc1nsc(NC(=O)N2C[C@H]3C[C@H](Nc4c(C#N)cnc5[nH]ccc45)C[C@H]3C2)n1 has a documented IC50 of 6.4

Record N#Cc1cnc2[nH]ccc2c1N[C@H]1CN(C(=O)NCC(F)(F)F)CC12CC2 , field IC50: 29

molecule CCCS(=O)(=O)N[C@H]1C[C@@H](N(C)c2c(C#N)cnc3[nH]ccc23)C1 , IC50 observed: 9.95

Measured IC50 of CC(C)c1nsc(NC(=O)N2C[C@H]3C[C@H](N(C)c4c(C#N)cnc5[nH]ccc45)C[C@H]3C2)n1 : 6.4

Lab book: IC50 of CN(c1c(C#N)cnc2[nH]ccc12)[C@H]1C[C@@H]2CN(S(=O)(=O)c3cccc(C(F)(F)F)c3)C[C@@H]2C1 noted as 12.6

response.value for CN(c1c(C#N)cnc2[nH]ccc12)[C@H]1C[C@@H]2CN(C(=O)Nc3nc(OCC(C)(C)N)ns3)C[C@@H]2C1 (field: IC50) = 15.6

Recorded result, C[C@@H]1CCN(C(=O)CC#N)C[C@@H]1N(C)c1c(C#N)cnc2[nH]ccc12 , IC50: 9.86
